The measured values listed here are drawn from ChEMBL document CHEMBL4689842.

tested on: Fibroblast; assay: Incucyte cell viability with human fibroblast; format: toxicity, cell-based; settings: 18 h, 10 µM, compound concentration 10 uM, replicate number 1, timepoint 18 hours; further: filed as whole numbers so only -1 and 0 and 1 occur
measure: Growth Rate
Respond with the number and no other words.

q: Fill blank: measured Growth Rate of the compound Cc1cn2cc(CC(=O)N3CCC4(CC3)CN(Cc3ccc(-n5nccn5)cc3Cl)C4)nc2s1 is ____.
a: 0

q: For COc1ccc2c(c1)O[C@H](c1ccc(OC)c(OC)c1)C[C@@H]2NC(=O)C1(c2ccc3c(c2)OC(F)(F)O3)CC1 [A-1596584] then?
a: 1

q: For CC[C@@H]1C(=O)N(C)c2cnc(Nc3ccc(C(=O)NC4CCN(C)CC4)cc3OC)nc2N1C1CCCC1 [BI-2536] then?
a: 0

q: For Cc1c(F)cccc1NC(=O)Nc1ccc(Cl)c(S(=O)(=O)[C@H]2CCCNC2)c1O [DANIRIXIN] then?
a: 1

q: For COc1cc(Nc2ccnc3ccc(Br)cc23)cc(OC)c1OC then?
a: 0

q: For Cc1cc2c(cc1-c1cc(/C=C/C(=O)O)ccc1O)C(C)(C)CCC2(C)C then?
a: 1

q: For CCOC(=O)c1ncn2c1CN(C)C(=O)c1cc(F)ccc1-2 [FLUMAZENIL] then?
a: 1

q: For CN(CCOc1ccc(CC2SC(=O)NC2=O)cc1)c1ccccn1 (configuration not stated) [ROSIGLITAZONE] then?
a: 1

q: For CCCc1cc(C)[nH]c(=O)c1CNC(=O)c1cc(-c2ccc(N3CCN(C(C)C)CC3)nc2)cc2c1cnn2C(C)C then?
a: 0

q: For CC[C@@H]1CN(C(=O)NCC(F)(F)F)C[C@@H]1c1cnc2cnc3[nH]ccc3n12 [UPADACITINIB] then?
a: 1

q: For CC(C)(O)c1cncc(-c2nc3ccc(F)cc3n2C2CC2)c1 [MSD-CYP11B2] then?
a: 1

q: For CCCCN(Cc1ccccc1)C(=O)c1ccc(S(=O)(=O)Nc2ccccc2)cc1 then?
a: 1

q: For Cl.NC[C@@H]1O[C@H](C23CC4CC(CC(C4)C2)C3)Cc2c1ccc(O)c2O then?
a: 0

q: For CCCCC#Cc1nc(NC)c2ncn([C@@H]3O[C@H](CO)[C@@H](O)[C@H]3O)c2n1 then?
a: 1

q: For CCC(=O)NC1Cc2ccccc2C(c2ccccc2)C1 (configuration not stated) then?
a: 0

q: For CN1C(=O)[C@@H](NC(=O)c2cc3ccccc3[nH]2)N=C(c2ccccc2)c2ccccc21 [DEVAZEPIDE] then?
a: 1

q: For Cc1c(C2=CCN(C(=O)N(C)C(C)C)CC2)nnn1-c1cccnc1F then?
a: 0

q: For COc1ccc(Br)cc1S(=O)(=O)NC(=O)/C=C/c1ccccc1Cc1ccc2ccccc2c1 then?
a: 0

q: For c1ccc(-c2oc3ncnc(NC[C@@H]4CCCO4)c3c2-c2ccccc2)cc1 then?
a: 0

q: For Cc1c(P(=S)(c2ccccc2)c2ccccc2)n2ccccc2[n+]1C/C=C/c1ccccc1.[Br-] then?
a: 0

q: For CC[C@H](Nc1ncnc2[nH]cnc12)c1nc2cccc(F)c2c(=O)n1-c1ccccc1 [IDELALISIB] then?
a: 0

q: For COc1cccc(CNC(=O)c2nc3scc(COCc4ccc(C(=O)O)cc4)c3c(=O)[nH]2)c1 [T-26c] then?
a: 1

q: For COc1ccc2c(c1)O[C@@H](c1ccc(OC)c(OC)c1)C[C@H]2NC(=O)C1(c2ccc3c(c2)OC(F)(F)O3)CC1 [A-1596586] then?
a: 1

q: For CN1CCN(c2ccc(-c3cccc(CN4CCOCC4)c3)cc2NC(=O)c2c[nH]c(=O)cc2C(F)(F)F)CC1 then?
a: 1

q: For C[C@@H](Oc1cc(-n2cnc3ccc(CN4CCN(C)CC4)cc32)sc1C(N)=O)c1ccccc1C(F)(F)F [GSK-461364] then?
a: 0

q: For CNC(=O)Nc1ccc2c(c1)CC[C@@]21OC(=O)N(CC(=O)N(Cc2ccc(F)cc2)[C@@H](C)C(F)(F)F)C1=O [A-485] then?
a: 0

q: For CCCCN(CC)c1nc(C)nc2c1c(C)cn2-c1c(C)cc(C)cc1C.Cl then?
a: 0
